From: patent US20010047099A1

System: wild buckwheat (Polygonum convolvulus)
Assay: Postemergence herbicidal activity
Assay type: in vivo
Conditions: Table 1; rate 250 ppm; visual, after 2 weeks
Description: Seeds of the desired test plant species were planted in Grace-Sierra MetroMix® 306 planting mixture, which typically has a pH of 6.0 to 6.8 and an organic matter content of about 30 percent, in plastic pots with a surface area of 64 square centimeters. When required to ensure good germination and healthy plants, a fungicide treatment and/or other chemical or physical treatment was applied. […]
In this section we review reported Post-emergent % Control POLCO values for a set of compounds.
assayEndpoint: Post-emergent % Control POLCO (%)

• COCCNc1cc(Cl)nc(C(=O)O)c1Cl [Compound 32] = 100
• CN(C)C=Nc1cc(Cl)nc(C(=O)O)c1Cl [Compound 40] = 100
• C=CCNc1cc(Cl)nc(C(=O)O)c1Cl [Compound 30] = 100
• O=C(O)c1nc(Cl)cc(NCCO)c1Cl [Compound 31] = 70
• CC(C)Nc1cc(Cl)nc(C(=O)O)c1Cl [Compound 28] = 95
• Nc1c(Cl)c(C(=O)O)nc(Cl)c1Sc1ccccc1 [Compound 24] = 50

---

system: White Clover (Trifolium repens); experiment: Range & Pasture Crop Testing (postemergence track sprayer); assay type: in vivo; conditions: Table 10
assayEndpoint: GR20 TRFRE (g/ha)

* CCCCOC(=O)c1nc(Cl)cc(N)c1Cl [Compound 7] | 15.3
* CCCCCCOC(=O)c1nc(Cl)cc(N)c1Cl [Compound 9] | 20.7
* CC(C)OC(=O)c1nc(Cl)cc(N)c1Cl [Compound 6] | 98.8

---

In this section we review reported melting point values for a set of compounds.
assayEndpoint: melting point

- Nc1cc(Oc2cccc(Cl)c2)nc(C(=O)O)c1Cl: 176 °C
- CCCCOC(=O)c1nc(Cl)cc(N)c1Cl: 78 to 79 °C
- CCNc1cc(Cl)nc(C(=O)O)c1Cl: 136 to 137 °C
- Cc1cccc(Oc2cc(N)c(Cl)c(C(=O)O)n2)c1: 169 °C
- CC(C)OC(=O)c1nc(Cl)cc(N)c1Cl: 114 to 115 °C
- CC(C)COc1nc(C(=O)O)c(Cl)c(N)c1Cl: 104 to 106 °C
- COC(=O)c1nc(Cl)cc(N)c1Cl: 134 to 135 °C
- Nc1c(Cl)c(C(=O)O)nc(Cl)c1Br: 201 to 202 °C
- Cc1ccc(Oc2cc(N)c(Cl)c(C(=O)O)n2)cc1: 173 °C
- COc1c(C(=O)O)nc(Br)c(Cl)c1N: 154 to 156 °C
- CN(C)c1cc(Cl)nc(C(=O)O)c1Cl: 110 °C

---

tested on: pigweed (Amaranthus retroflexus); assay: Preemergence herbicidal activity; format: in vivo; conditions: Amaranthus retroflexus, 504 h; Table 6 (headed Post-emergent; text: preemergence); rate 560 ppm; after 3 weeks; read-out: % Control AMARE
In this section we review reported pest or weed control at 560 ppm values for a set of compounds.
assayEndpoint: pest or weed control at 560 ppm

- CCNc1cc(Cl)nc(C(=O)O)c1Cl: 100%
- Nc1c(Cl)c(C(=O)O)nc(Cl)c1Br: 100%
- Nc1c(Cl)c(C(=O)O)nc(Cl)c1C(F)(F)F: 80%
- Nc1c(F)c(Br)nc(C(=O)O)c1F: 70%
- Nc1cc(Br)nc(C(=O)O)c1Br: 100%
- CNc1cc(Cl)nc(C(=O)O)c1Cl: 100%
- NC(=O)c1nc(Cl)cc(N)c1Cl: 0%
- Nc1cc(Br)nc(C(=O)O)c1Cl: 90%
